B1: C10orf62 (parent)
chain: GHSHHSHHGHPSHQSHSLPNRRH

# Variants of: B1
# procedure.text: protein stability index of a GFP-peptide fusion (GPS, HEK-293T) (PSI 1-6); higher = more stable;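 further: lentivirally expressed fusions sorted by FACS into six bins by GFP to DsRed ratio, PSI derived from sequencing read proportions per bin multiplied by bin number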
# condition.details: c terminus: native
Binary classification by protein stability index, with 3 as an inclusive lower bound for TRUE; all other cases are FALSE.

Illustrative cases are given below, each with its answer.
{"variant.description": "S15Y", "class.label": "FALSE"}
{"variant.description": "S6Q", "class.label": "TRUE"}
{"variant.description": "H23N", "class.label": "TRUE"}
{"variant.description": "N20S", "class.label": "FALSE"}
{"variant.description": "H16M", "class.label": "FALSE"}
{"variant.description": "S15V", "class.label": "TRUE"}
{"variant.description": "H23F", "class.label": "FALSE"}
{"variant.description": "H4K", "class.label": "FALSE"}
{"variant.description": "H10G", "class.label": "FALSE"}
{"variant.description": "H5S", "class.label": "FALSE"}

Check this variant for protein stability index at or above 3: `H10A`
TRUE

Same question, `S17G` this time
TRUE

Same question, `H23W` this time
FALSE

Same question, `S6L` this time
TRUE

Same question, `G1R` this time
TRUE

Same question, `G9N` this time
FALSE
